Attribution: patent US11649255B2

Consider the following compounds; for each one, report its IC50.
- EXPERIMENTAL_SYSTEM: recombinant human HPK1 (Homo sapiens (Human), UniProt Q92918)
- Sequence (Q92918 whole entry): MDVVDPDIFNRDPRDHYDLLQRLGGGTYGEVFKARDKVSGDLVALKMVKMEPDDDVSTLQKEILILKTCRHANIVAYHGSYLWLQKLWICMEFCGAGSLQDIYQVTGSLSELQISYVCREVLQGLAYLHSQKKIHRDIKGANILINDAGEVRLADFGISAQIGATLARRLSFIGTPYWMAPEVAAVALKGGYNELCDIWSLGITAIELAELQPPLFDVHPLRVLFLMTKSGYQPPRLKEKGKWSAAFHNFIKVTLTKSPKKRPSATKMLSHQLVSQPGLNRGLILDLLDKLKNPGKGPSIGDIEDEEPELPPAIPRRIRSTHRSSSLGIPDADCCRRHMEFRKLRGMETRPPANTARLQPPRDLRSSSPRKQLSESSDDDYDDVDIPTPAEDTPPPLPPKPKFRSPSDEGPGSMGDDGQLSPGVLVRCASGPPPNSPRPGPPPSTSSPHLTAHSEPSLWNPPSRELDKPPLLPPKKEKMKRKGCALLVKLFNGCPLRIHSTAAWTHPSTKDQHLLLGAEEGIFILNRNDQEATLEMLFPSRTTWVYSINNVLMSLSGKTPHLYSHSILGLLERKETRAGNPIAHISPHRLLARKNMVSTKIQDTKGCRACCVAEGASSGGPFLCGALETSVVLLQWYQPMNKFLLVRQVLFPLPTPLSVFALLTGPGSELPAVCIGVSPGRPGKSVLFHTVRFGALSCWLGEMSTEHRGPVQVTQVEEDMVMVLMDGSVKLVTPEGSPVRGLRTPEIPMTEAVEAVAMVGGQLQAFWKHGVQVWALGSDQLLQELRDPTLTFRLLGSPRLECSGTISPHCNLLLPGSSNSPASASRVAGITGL
- ASSAY_COMMENT: HPK1 kinase assay (ADP-Glo)
- RECORDED_CONDITIONS: 25 μM ATP, MBP substrate

# input // lookup IC50 for CN(C)C(=O)c1ccn(-c2c(F)c(Cl)c(-c3ccn4nc(NC(=O)[C@@H]5C[C@@H]5F)cc4c3)c3cn[nH]c23)c1 [Example 649]
# output < 100 nM

# input // lookup IC50 for CNC(=O)C(C)c1c(F)c(Cl)c(-c2ccc3nc(NC(=O)[C@@H]4C[C@@H]4F)cn3c2)c2cn[nH]c12 (stereo partly shown) [Example 433]
# output < 100 nM

# input // lookup IC50 for C=CC(=O)Nc1cc2[nH]ncc2c(-c2ccc3nc(NC(=O)[C@@H]4C[C@@H]4F)cn3c2)c1Cl [Example 286]
# output > 1000 nM

# input // lookup IC50 for CCc1c(F)c(F)c2[nH]ncc2c1-c1ccc2nc(NC(=O)[C@@H]3C[C@@H]3F)cn2c1 [Example 298]
# output < 100 nM

# input // lookup IC50 for CC(=O)NC(C)c1c(F)c(Cl)c(-c2ccc3nc(NC(=O)[C@@H]4C[C@@H]4F)cn3c2)c2cn[nH]c12 (stereo partly shown) [Example 417]
# output < 100 nM

# input // lookup IC50 for O=C(Nc1nc2ccc(-c3cccc4[nH]ncc34)cc2s1)C1CC1 [Example 14]
# output > 1000 nM

# input // lookup IC50 for CC(=O)c1c(F)c(C)c(-c2ccc3nc(NC(=O)[C@@H]4C[C@@H]4F)cn3c2)c2cn[nH]c12 [Example 322]
# output 101 to 500 nM

# input // lookup IC50 for CSc1c(F)cc2[nH]ncc2c1-c1ccc2nc(NC(=O)[C@@H]3C[C@@H]3F)sc2n1 [Example 156]
# output < 100 nM

# input // lookup IC50 for CC(C#N)Nc1c(F)c(Cl)c(-c2ccc3nc(NC(=O)[C@@H]4C[C@@H]4F)cn3c2)c2cn[nH]c12 (stereo partly shown) [Example 371]
# output < 100 nM

# input // lookup IC50 for O=C(O)NCC1CN(c2c(F)c(Cl)c(-c3ccc4nc(NC(=O)[C@@H]5C[C@@H]5F)sc4c3)c3cn[nH]c23)C1 [Example 90]
# output < 100 nM

# input // lookup IC50 for Cc1c(F)c(S(C)(=O)=O)c2[nH]ncc2c1-c1ccn2nc(NC(=O)[C@@H]3C[C@@H]3F)cc2c1 [Example 489]
# output < 100 nM

# input // lookup IC50 for CN(C)C(=O)c1c(F)c(Cl)c(-c2ccc3nc(NC(=O)[C@@H]4C[C@@H]4F)sc3n2)c2cn[nH]c12 [Example 193]
# output < 100 nM

# input // lookup IC50 for CNC(=O)NCCOc1c(F)c(C)c(-c2ccn3nc(NC(=O)[C@@H]4C[C@@H]4F)cc3c2)c2cn[nH]c12 [Example 545]
# output < 100 nM

# input // lookup IC50 for CC(Nc1c(F)c(Cl)c(-c2ccc3nc(NC(=O)[C@@H]4C[C@@H]4F)cn3c2)c2cn[nH]c12)C(F)F (stereo partly shown) [Example 425]
# output < 100 nM

# input // lookup IC50 for CC1(F)CN(c2c(F)c(Cl)c(-c3ccn4nc(NC(=O)[C@@H]5C[C@@H]5F)cc4c3)c3cn[nH]c23)C1 [Example 632]
# output < 100 nM

# input // lookup IC50 for CCc1n[nH]c2cc(F)c(C)c(-c3ccn4nc(NC(=O)[C@@H]5C[C@@H]5F)cc4c3)c12 [Example 475]
# output > 1000 nM

# input // lookup IC50 for COC(=O)c1c(F)c(C)c(-c2ccc3nc(NC(=O)[C@@H]4C[C@@H]4F)cn3c2)c2cn[nH]c12 [Example 305]
# output < 100 nM

# input // lookup IC50 for O=C(Nc1cn2cc(-c3c(Br)ccc4[nH]ncc34)ccc2n1)[C@@H]1C[C@@H]1F [Example 238]
# output < 100 nM

# input // lookup IC50 for O=C(Nc1cn2cc(-c3c(C4CC4)ccc4[nH]ncc34)ccc2n1)C1CC1 [Example 244]
# output 101 to 500 nM

# input // lookup IC50 for CC(=O)c1ccc2[nH]ncc2c1-c1ccc2nc(NC(=O)C3CC3)cn2c1 [Example 239]
# output < 100 nM

# input // lookup IC50 for CC(NC(=O)C(F)F)c1c(F)c(Cl)c(-c2ccn3nc(NC(=O)[C@@H]4C[C@@H]4F)cc3c2)c2cn[nH]c12 (stereo partly shown) [Example 665]
# output < 100 nM

# input // lookup IC50 for Cc1c(F)c(C(=O)N(C)C)c2[nH]ncc2c1-c1ccn2nc(NC(=O)[C@@H]3C[C@@H]3F)cc2c1 [Example 570]
# output < 100 nM

# input // lookup IC50 for CC(NC(=O)C1CCC1)c1c(F)c(Cl)c(-c2ccn3nc(NC(=O)[C@@H]4C[C@@H]4F)cc3c2)c2cn[nH]c12 (stereo partly shown) [Example 661]
# output < 100 nM

# input // lookup IC50 for O=C(Nc1cn2cc(-c3c(Cl)c(F)c(Cn4nccn4)c4[nH]ncc34)ccc2n1)[C@@H]1C[C@@H]1F [Example 383]
# output < 100 nM

# input // lookup IC50 for CN(c1ccncn1)c1c(F)c(Cl)c(-c2ccc3nc(NC(=O)[C@@H]4C[C@@H]4F)cn3c2)c2cn[nH]c12 [Example 348]
# output < 100 nM
